System tested: serotonine 5 HT1 receptor
Assay explanation: Affinity for other receptors: serotonine 5 HT1
Particulars: negligible affinity
Observed property: IC50

• CCN(CC)c1ccc(S(=O)(=O)N2CCCC2=O)cc1 = 5 to 10 µM
• CC(C)(C)c1ccc(S(=O)(=O)N2CCCC2=O)cc1 = 5 to 10 µM

====

As a worked illustration, we turn to IC50 data collected for serotonine 5 HT2 receptor (Homo sapiens, UniProt P28223).
Observed property: IC50

• CC(C)(C)c1ccc(S(=O)(=O)N2CCCC2=O)cc1 [Example 1] = 5 to 10 µM
• CCN(CC)c1ccc(S(=O)(=O)N2CCCC2=O)cc1 [Example 2] = 5 to 10 µM

====

The entries below come with measured ED50 values attached.
Tested on: cholinomimetic effects induced by carbachol
Assay explanation: In vivo anticholinergic action: inhibition of carbachol-induced cholinomimetic effects
Design: species or system CD1 male mice
Particulars: Mus musculus, ip, 0.5 h; i.p.; carbachol 1 mg/kg s.c. 30 min later; read-out: dose able to inhibit, in 50% of the animals, Diarrhea
Description: The anticholinergic activity of the compounds was determined by evaluating the capacity to inhibit cholinomimetic effects induced by carbachol. Atropine sulphate was used as reference product. CD1 male mice are used weighing 25 to 30 g. […] Each animal was examined 30 minutes after the injection of carbachol to evaluate the presence of diarrhea, salivation and watering of the eyes; the body temperature was also measured using a thermocouple inserted 1.5 cm into the rectum. […]
Observed property: ED50 (mg/kg)

- O=C1CCCN1S(=O)(=O)c1ccc(N2CCCCC2)cc1: 3
- CCN(CC)c1ccc(S(=O)(=O)N2CCCC2=O)cc1: 7
- CC(C)(C)c1ccc(S(=O)(=O)N2CCCC2=O)cc1: 7
- O=C1CCCN1S(=O)(=O)c1ccc(N2CCCCCC2)cc1: 1

====

System tested: dopamine receptor
Assay explanation: Affinity for other receptors: dopamine
Particulars: negligible affinity
The entries below come with measured IC50 values attached.
Observed property: IC50

- CCN(CC)c1ccc(S(=O)(=O)N2CCCC2=O)cc1: 5 to 10 µM
- CC(C)(C)c1ccc(S(=O)(=O)N2CCCC2=O)cc1: 5 to 10 µM

====

The entries below come with measured pIC50 values attached.
System tested: Muscarine receptor 1 (Rattus norvegicus)
Sequence (P08482 1-460): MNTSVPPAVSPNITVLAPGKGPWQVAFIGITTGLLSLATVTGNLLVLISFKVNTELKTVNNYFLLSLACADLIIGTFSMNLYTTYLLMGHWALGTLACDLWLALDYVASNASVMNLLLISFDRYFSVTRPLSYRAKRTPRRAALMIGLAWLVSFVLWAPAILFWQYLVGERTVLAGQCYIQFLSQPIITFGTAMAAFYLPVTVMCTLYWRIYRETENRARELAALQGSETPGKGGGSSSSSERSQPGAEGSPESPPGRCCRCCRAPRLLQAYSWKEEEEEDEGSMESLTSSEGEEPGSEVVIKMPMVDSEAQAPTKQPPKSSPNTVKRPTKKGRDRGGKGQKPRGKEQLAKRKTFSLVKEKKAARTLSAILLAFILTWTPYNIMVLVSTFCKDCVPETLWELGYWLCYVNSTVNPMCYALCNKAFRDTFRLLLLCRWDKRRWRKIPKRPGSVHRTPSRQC
pIC50: −log10 of the molar value.
Observed property: pIC50

- CC(C)(C)c1ccc(S(=O)(=O)N2CCCC2=O)cc1: 6.89
- CCN(CC)c1ccc(S(=O)(=O)N2CCCC2=O)cc1: 7.01
